What pKi was measured for each of the following?
- tgt: 5-hydroxytryptamine receptor 4 (Rattus norvegicus)
- Sequence (Q62758 whole entry): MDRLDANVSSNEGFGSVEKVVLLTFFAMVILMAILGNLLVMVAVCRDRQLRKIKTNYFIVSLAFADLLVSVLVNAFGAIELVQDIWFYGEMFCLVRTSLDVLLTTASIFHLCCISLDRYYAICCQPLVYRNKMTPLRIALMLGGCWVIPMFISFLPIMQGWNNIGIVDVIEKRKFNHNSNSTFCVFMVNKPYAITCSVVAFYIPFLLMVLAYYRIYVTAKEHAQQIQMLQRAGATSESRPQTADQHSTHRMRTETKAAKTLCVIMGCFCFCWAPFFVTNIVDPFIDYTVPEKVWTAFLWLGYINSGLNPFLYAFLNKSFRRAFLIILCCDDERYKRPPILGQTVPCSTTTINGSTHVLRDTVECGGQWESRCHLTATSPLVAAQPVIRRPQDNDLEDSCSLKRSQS
One number for each entry, as −log10 of the molar value.

> print(dat)
                                   molecule  value.measured
1  COc1ccc2[nH]cc(CCN)c2c1 [tryptamine, 5-Methoxy]            6.95

Give me pKi for each of these molecules, listed below.
1. NCCc1c[nH]c2ccc(C(N)=O)cc12 [[3H]-5-carboxamidotryptamine]
2. Cn1cc(CCN)c2cc(O)ccc21 [5-HT,omega-N-Me]

# output
1: 6.00; 2: 6.58
